Test system: RAW264.7
assay text: Antiinflammatory activity in mouse RAW264.7 cells assessed as inhibition of LPS-induced TNF alpha production at 10 uM after 2 hrs by ELISA
Assay type: functional
applied conditions: RAW264.7, 2 h
property label: inhibition at 10 µM

                  compound_structure_string  value
0  COc1cc(OC)c(OC)cc1/C=C/C(=O)/C=C/c1cc(OC)c(OC)cc1OC  > 20%
1  O=C1/C(=C/c2c(F)cccc2C(F)(F)F)CC/C1=C\c1c(F)cccc1C(F)(F)F  > 20%
2  O=C1/C(=C/c2cccc(C(F)(F)F)c2F)CCC/C1=C\c1cccc(C(F)(F)F)c1F  > 20%
3  O=C(/C=C/c1ccc(N2CCOCC2)cc1)/C=C/c1ccc(N2CCOCC2)cc1  > 20%
